System: L1210 leukemia ip in BDF1 mice, survival T/C
ASSAY_OVERVIEW: NCI In Vivo Anticancer Drug Screen. Data for tumor model L1210 Leukemia (intraperitoneal) in B6D2F1 (BDF1) mice
CONDITION_LABEL: endpoint: mean survival time; dose: 100.0 mg/kg/injection; schedule: Q01DX001 (ip); vehicle: other; higher = longer survival
Toxic doses and inconclusive results are not listed.
As shown below, each of these compounds has a reported T/C value.
OUTCOME_MEASURE: T/C

INSERT INTO measurements (compound, outcome_measure, reading) VALUES
  ('CCCCCCS(=O)(=O)c1n[nH]c(=O)[nH]c1=O', 'T/C', '98 % of control'),
  ('OCC(O)C(O)C(O)C(Sc1ccccc1)Sc1ccccc1 (stereo not drawn)', 'T/C', '95 % of control'),
  ('O=C(CCC(C(=O)Nc1ccccc1)C(O)(c1ccccc1)c1ccccc1)Nc1ccccc1 (stereo not drawn)', 'T/C', '91 % of control'),
  ('Nc1ncnc2c(C(=O)O)c[nH]c12', 'T/C', '98 % of control'),
  ('O=C(O)c1ccc([N+](=O)[O-])cc1OCc1ccccc1', 'T/C', '103 % of control'),
  ('COc1cc(Cl)ccc1NC(=O)C(O)C(O)C(O)C(O)CO (stereo not drawn)', 'T/C', '97 % of control'),
  ('Cc1ccc(S(=O)(=O)NC(CC(C)C)C(=O)O)cc1 (stereo not drawn)', 'T/C', '101 % of control'),
  ('O=C1COc2ccccc2N1', 'T/C', '103 % of control');
